- System: UACC-257 melanoma
- test: NCI tumour cell line growth inhibition, 48 h
Recorded measurements of TGI, one per entry
Only the number, expressed in µM, is required.

Here is how some compounds turned out for TGI.
>  <compound>
CCN(CC)CCCC(Cc1ccccc1)Nc1c2ccc(Cl)cc2nc2ccc(OC)cc12 (stereo not given)

>  <measured_parameter>
TGI

>  <val>
3.44

$$$$
>  <compound>
C[C@@H](CO)C1=CC(C#C[Si](C)(C)C)N(C(=O)Oc2ccccc2)c2ccccc21 (stereo not given in full)

>  <measured_parameter>
TGI

>  <val>
38.3

$$$$

Proceed to the following item.
Ask: For O=C(NCCNc1nccc(-c2c(-c3ccc(F)cc3)nc3sccn23)n1)c1ccccc1 , what is its reported TGI?
Result: 41.1
